# SYSTEM: Endoribonuclease toxin MazF (Escherichia coli K-12, UniProt P0AE70)
# Sequence (P0AE70 whole entry): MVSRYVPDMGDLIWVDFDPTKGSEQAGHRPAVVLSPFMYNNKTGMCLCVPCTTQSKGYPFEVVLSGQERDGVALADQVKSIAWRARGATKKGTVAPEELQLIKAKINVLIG
# EXPERIMENT DESCRIPTION: MazF toxin RNase activators, dose response, biochemical, fluorescence, single-stranded RNA substrate, uHTS hits (AID 588481)
# Format: functional
The source made the active and inactive calls.
Task for the reader: assign each of the following compounds its reported EC50.

Below, 3 compounds whose answers are already recorded.
In [3]: df
Out[3]:
                  compound_structure_string  readout_label         measurement
0  CCOC(=O)Cn1/c(=N/C(=O)c2ccc([N+](=O)[O-])s2)sc2ccccc21           EC50  > 99 µM (inactive)
1  Cc1ccc(C(=O)Nc2cccc(C(=O)N/N=C/c3ccc(F)cc3)c2)cc1           EC50  41.1 µM (inactive)
2  CC(C)OC(=O)/C(C#N)=C/c1ccc(-c2ccc(SC(F)F)cc2)o1           EC50  > 99 µM (inactive)

Next compound, EC50 to be filled in.
Input: Name the reported EC50 value associated with the compound `COc1ccc(N/C=C\C(=O)c2ccc(C)cc2)cc1OC`
Output: > 99 µM (inactive)

* * *

# SYSTEM: FAD-linked sulfhydryl oxidase ALR (Homo sapiens)
# Sequence (P55789 whole entry): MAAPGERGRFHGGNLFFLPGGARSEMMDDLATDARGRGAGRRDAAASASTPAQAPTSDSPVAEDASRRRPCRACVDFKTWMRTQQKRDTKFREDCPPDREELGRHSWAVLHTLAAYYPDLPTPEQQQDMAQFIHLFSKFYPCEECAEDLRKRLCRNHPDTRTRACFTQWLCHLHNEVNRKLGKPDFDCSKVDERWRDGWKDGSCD
# EXPERIMENT DESCRIPTION: inhibitors of human ALR sulfhydryl oxidase, dose response, biochemical, H2O2 detection, luminescence, cherry-pick (AID 493248)
Structures can show the parent of a compound that is named as a salt. Active and inactive are the calls of the source.
Task for the reader: assign each of the following compounds its reported AC50.

Below, 5 compounds whose answers are already recorded.
In [3]: df
Out[3]:
                                   compound  readout_label       measurement
0        CCCc1cc(C(N)=O)c(NC(=O)c2ccoc2C)s1           AC50  2740 nM (active)
1  CN(C)CCCN1c2ccccc2Sc2ccc(Cl)cc21 [CHLORPROMAZINE HYDROCHLORIDE]           AC50  1010 nM (active)
2   O=C(NNc1c2ccccc2nc2ccccc12)c1ccc(O)cc1O           AC50    62 nM (active)
3                 Cc1nc(SCc2cccnc2)nc(O)c1C           AC50  1180 nM (active)
4                  O=C(NCSc1ccncn1)c1ccccc1           AC50  1490 nM (active)

Next compound, AC50 to be filled in.
Input: Name the reported AC50 value associated with the compound [O-][S+](c1ccc2ccccc2c1)c1cnns1 (stereo unspecified)
Output: 769 nM (active)

* * *

# SYSTEM: Small ubiquitin-related modifier 1 (Homo sapiens, UniProt P63165)
# Sequence (P63165 whole entry): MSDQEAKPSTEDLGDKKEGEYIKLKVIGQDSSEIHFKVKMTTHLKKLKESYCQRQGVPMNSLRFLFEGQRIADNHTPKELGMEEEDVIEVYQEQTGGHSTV
# EXPERIMENT DESCRIPTION: inhibitors of SUMO1 partner interactions, dose response, biochemical, FRET (AID 624383)
# Type: functional
# EXPERIMENTAL SETUP: read-out: IC50_Mean
Activity calls are given as the source filed them.
READOUT LABEL: IC50

COMPOUND STRUCTURE STRING	READOUT LABEL	MEASUREMENT
COCCN(C(=O)COC(=O)c1cc2c(s1)CCC2)c1c(N)n(Cc2ccccc2)c(=O)[nH]c1=O	IC50	1.42 µM (active)
Fc1ccc(Nc2nnc(-c3ccncc3)s2)cc1Cl	IC50	100 µM (inactive)
O=C1N=c2ccccc2=C1Nc1ccc(S(=O)(=O)Nc2nccs2)cc1	IC50	51 µM (inactive)

Input: Name the reported IC50 value associated with the compound `C[C@H]([C@@H](O)[C@@H](O)[C@@H](C)C(C)(C)C)[C@H]1CC[C@H]2[C@@H]3CC[C@H]4C[C@H](OS(=O)(=O)O)[C@@H](OS(=O)(=O)O)C[C@]4(C)[C@H]3CC[C@]12C`
Output: 22.5 µM (inactive)

* * *

# SYSTEM: High affinity choline transporter 1 (Homo sapiens, UniProt Q9GZV3)
# Sequence (Q9GZV3 whole entry): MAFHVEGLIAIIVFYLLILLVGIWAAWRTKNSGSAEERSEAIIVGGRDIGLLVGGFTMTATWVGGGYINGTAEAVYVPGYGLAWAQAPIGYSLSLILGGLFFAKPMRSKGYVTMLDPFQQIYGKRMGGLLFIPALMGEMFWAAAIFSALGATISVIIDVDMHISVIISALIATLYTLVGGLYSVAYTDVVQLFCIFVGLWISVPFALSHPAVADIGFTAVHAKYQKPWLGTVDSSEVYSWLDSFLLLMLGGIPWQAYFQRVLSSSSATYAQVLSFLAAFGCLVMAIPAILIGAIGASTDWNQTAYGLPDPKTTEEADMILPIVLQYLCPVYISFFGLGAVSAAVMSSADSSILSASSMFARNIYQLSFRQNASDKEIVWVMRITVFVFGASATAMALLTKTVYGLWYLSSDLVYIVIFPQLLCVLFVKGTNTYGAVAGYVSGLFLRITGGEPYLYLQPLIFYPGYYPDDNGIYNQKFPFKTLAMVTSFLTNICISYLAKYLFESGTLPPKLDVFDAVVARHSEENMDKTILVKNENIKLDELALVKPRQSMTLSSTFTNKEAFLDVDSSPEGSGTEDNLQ
# EXPERIMENT DESCRIPTION: CHT inhibitors, dose response, cell-based, 5-point CRC, membrane potential dye (AID 504840)
# Assay type: functional
Activity calls are given as the source filed them.
READOUT LABEL: IC50

Below, 6 compounds whose answers are already recorded.
>>> df
                                   compound       measurement
0  Cc1ccc(C)c(OCC(=O)Nc2ccc(S(=O)(=O)Nc3ccccn3)cc2)c1C   7.2 µM (active)
1  CC1CCN(CC(=O)Nc2cccc(C(=O)Nc3cccc(C(F)(F)F)c3)c2)CC1  12.3 µM (active)
2  CCCc1cc2c(=O)c(-c3cscn3)c(C(=O)OCC)oc2cc1O  13.8 µM (active)
3  CCN(CC)CCNC(=O)c1cn(CC)c2ccc(S(=O)(=O)N3CCc4ccccc4C3)cc2c1=O  11.2 µM (active)
4  O=c1c2ccccc2nc(SCc2ccncc2)n1CC1CCCO1 (configuration not stated)  12.9 µM (active)
5  Cc1cccc(CC(Cc2nc3ccccc3[nH]2)c2nc3ccccc3[nH]2)c1 (configuration not stated)  12.6 µM (active)

Can you give me IC50 for all of these, one by one?
1. CC1CCN(CC(O)COc2ccc(OCC(O)CN3CCC(C)CC3)cc2)CC1 (configuration not stated)
2. CCCCn1c(CN2CCN(c3ccccc3)CC2)nc2c1c(=O)n(C)c(=O)n2C
3. CCCC(=O)NC(=S)Nc1cccc(NC(=O)c2ccccc2Cl)c1
4. CCOC(=O)c1cccc(Nc2ncnc3ccccc23)c1

Output:
1. 12.6 µM (active)
2. 4.27 µM (active)
3. 10.3 µM (active)
4. 14.5 µM (active)

Can you give me IC50 for all of these, one by one?
1. O=C(NNC(=S)NC(=O)C12CC3CC(CC(C3)C1)C2)c1ccncc1
2. COc1ccc(C/C(O)=C(\C#N)c2nc3ccccc3s2)cc1

Output:
1: 28.8 µM (active); 2: 0.724 µM (active)

* * *

# SYSTEM: Nonstructural protein 1 (Influenza A virus)
# Sequence (Q194T2 whole entry): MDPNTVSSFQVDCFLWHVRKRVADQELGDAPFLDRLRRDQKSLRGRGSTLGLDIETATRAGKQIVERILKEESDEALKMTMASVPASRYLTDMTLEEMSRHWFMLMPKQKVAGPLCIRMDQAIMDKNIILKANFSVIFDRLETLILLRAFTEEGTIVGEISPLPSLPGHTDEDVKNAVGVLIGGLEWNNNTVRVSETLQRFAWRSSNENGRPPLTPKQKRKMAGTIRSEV
# Assay type: functional, Influenza A virus (A/California/07/2009(H1N1))
Calls of active or inactive are those of the source.
READOUT LABEL: IC50

Below, 2 compounds whose answers are already recorded.
In [3]: df
Out[3]:
                                   compound  readout_label        measurement
0     O=C1C(=C(c2ccccc2)c2ccccc2)Nc2ccccc21           IC50   30.3 µM (active)
1  CCC1CCCCN1c1nc(-c2cccc(OC)c2O)nc2ccccc12 (stereo unspecified)           IC50  > 100 µM (active)

Can you give me IC50 for all of these, one by one?
1. O=[N+]([O-])c1cccc(/C=N/c2cc3c(cc2Br)OCCO3)c1
2. Nc1ccccc1NC1CCCCC1
3. CN(C)c1ccc(C=c2c3cc(O)ccc3n3c2cc(-c2ccccc2)[n+]3C)cc1
4. O=C(NNc1c2ccccc2nc2ccccc12)c1ccc(O)cc1O

Output:
1: > 100 µM (active); 2: 64.8 µM (active); 3: 3.76 µM (active); 4: 32.1 µM (active)

* * *

Task for the reader: assign each of the following molecules its reported EC50.
# SYSTEM: Streptokinase A (Streptococcus pyogenes serotype M1)
# Sequence (P10520 whole entry): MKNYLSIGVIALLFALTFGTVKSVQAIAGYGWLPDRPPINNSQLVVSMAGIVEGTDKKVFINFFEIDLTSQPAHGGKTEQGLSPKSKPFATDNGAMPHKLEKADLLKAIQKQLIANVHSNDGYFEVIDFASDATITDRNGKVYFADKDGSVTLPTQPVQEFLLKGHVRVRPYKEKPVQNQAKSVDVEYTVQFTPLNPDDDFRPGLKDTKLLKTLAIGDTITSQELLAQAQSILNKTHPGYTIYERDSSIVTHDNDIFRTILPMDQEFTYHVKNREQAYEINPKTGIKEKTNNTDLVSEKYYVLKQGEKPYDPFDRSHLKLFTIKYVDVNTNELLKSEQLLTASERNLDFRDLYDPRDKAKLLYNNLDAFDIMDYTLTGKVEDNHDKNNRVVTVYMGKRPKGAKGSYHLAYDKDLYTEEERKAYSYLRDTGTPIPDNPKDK
# EXPERIMENT DESCRIPTION: S. pyogenes streptokinase expression inhibitors, potency, dose response, plasminogen activation absorbance, OD405 (AID 1914);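 also: secreted streptokinase activity via plasminogen activation per viability signal from cell pellet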
# Assay type: functional, Streptococcus pyogenes M1 GAS
Calls of active or inactive are those of the source.

Below, 2 molecules whose answers are already recorded.
>>> df
                                   molecule            measurement
0  COc1ccc(C(=O)c2c(C(F)(F)F)oc3c2C(=O)c2ccccc2C3=O)cc1  > 150 µM (not active)
1   O=C(NNc1c2ccccc2nc2ccccc12)c1ccc(O)cc1O  > 150 µM (not active)

Can you give me EC50 for all of these, one by one?
1. COc1cccc(Nc2c3c(nc4c(-c5ccccc5)c(C)nn24)CCC3)c1
2. OC(CNCC1CCCO1)Cn1c2ccc(Br)cc2c2cc(Br)ccc21 (stereo not given)
3. Cc1ccccc1/C=C1\Sc2ccc(C(=O)N3CCN(c4ccccn4)CC3)cc2N(C)C1=O

Output:
8.91 µM (active)
7.22 µM (active)
> 150 µM (not active)
